Test system: MDA-MB-231 breast
Experiment: NCI tumour cell line growth inhibition, 48 h
Could you please report measured TGI for the items listed next?

Use these answered entries as a reference point.
IN: Using known records, supply TGI for CC(=O)Nc1cccc(N2C(=O)/C(=C\c3cccc(Oc4ccccc4)c3)SC2c2ccccc2)c1 (centres undefined)
OUT: > 100 µM

IN: Using known records, supply TGI for `CC(C)OP(=O)(OC(C)C)C(C)(C)O`
OUT: > 100 µM

IN: Using known records, supply TGI for `CC(C)[C@H]1NC(=O)[C@H]2N=C(S[C@H]2C)[C@@H]2CCCN2C(=O)[C@H](Cc2ccccc2)NC(=O)[C@@H]2CSC(=N2)[C@@H](Cc2ccccc2)NC(=O)[C@@H]2CSC1=N2`
OUT: > 50 µM

IN: Using known records, supply TGI for `Cn1c(=O)c2c(nc(N/N=C/c3ccccc3C(=O)O)n2C)n(C)c1=O`
OUT: > 100 µM

IN: Using known records, supply TGI for `Cc1ccc(OC(=O)N2C/C(=C\c3ccccc3)C(=O)/C(=C/c3ccccc3)C2)cc1`
OUT: 70.2 µM

IN: Using known records, supply TGI for O=CN1N=C(c2cccc(Nc3ccnc4cc(Cl)ccc34)c2)CC1c1ccc(Cl)cc1 (centres undefined)
OUT: > 100 µM

IN: Using known records, supply TGI for `C=C1C[C@@H]2O[C@H]3[C@H]4[C@@H](CC[C@@](C)(OC(=O)CCC)[C@H]42)[C@@H](C)C(=O)O[C@@]3(C)CC[C@H]1OO`
OUT: 33.2 µM

IN: Using known records, supply TGI for `CCOC(=O)c1c(NC(=O)c2ccc(Cl)cc2)sc2c(CN(C)C)c(O)ccc12`
OUT: 34.5 µM

Here is another molecule to look at.
IN: Using known records, supply TGI for O=C(O)CCCCC1CCSS1 (centres undefined)
OUT: > 100 µM

* * *

System: CCRF-CEM leukemia
Assay: NCI tumour cell line growth inhibition, 48 h
Could you please report measured TGI for the items listed next?

IN: Using known records, supply TGI for `O=c1cccc(Cl)[nH]1`
OUT: > 100 µM

IN: Using known records, supply TGI for `CC(=O)Oc1cc2cnc3c4cc(OC(C)=O)c(OC(C)=O)cc4ccc3c2cc1OC(C)=O`
OUT: > 100 µM

For every item in the list below, what is its measured TGI?
1. CCOP(=O)(O)C(Nc1ccc(N=Nc2ccccc2)cc1)c1cccc(C(Nc2ccc(N=Nc3ccccc3)cc2)P(=O)(O)OCC)c1 (stereo unspecified)
2. C1CCCN(NC2=NCCO2)CC1
3. C[C@H]1CC[P+](C)(c2ccccc2)C1 (stereo partly specified)
4. COc1ccc(/C=C/C(=O)c2cc3c(N)c(C(=O)Nc4ccc(OC)cc4)sc3nc2C)cc1

OUT:
96.7 µM
> 100 µM
> 100 µM
> 50 µM

* * *

Test system: HCT-15 colon
Assay: NCI tumour cell line growth inhibition, 48 h; in the data active means GI50 below about 0.43 µM; inactive means the rest
Field 'call' accepts t (active), f (inactive)

IN: // return assay outcome for CCOC1Oc2ccc(C)cc2C(=O)/C1=C\Nc1ccc(S(N)(=O)=O)cc1 (centres undefined)
OUT: f

Continuing:
IN: // return assay outcome for C[As](C)SC1OCC(O)C(O)C1O (centres undefined)
OUT: t

IN: // return assay outcome for O=CN1N=C(c2cccc(Nc3ccnc4cc(Cl)ccc34)c2)CC1c1ccc(Cl)cc1 (centres undefined)
OUT: f

IN: // return assay outcome for `N#Cc1cc(S(=O)(=O)Nc2nc3cc(Cl)ccc3o2)c(SCc2ccccc2)cc1Cl`
OUT: f

* * *

Tested on: NCI-H460 lung
Assay: NCI tumour cell line growth inhibition, 48 h
Property measured: TGI

Use these answered entries as a reference point.
IN: Using known records, supply TGI for `CCCCCCCCCCCCCCCCNC(=O)/C(=C\c1ccc(Cl)c(Cl)c1)NC(=O)c1ccccc1`
OUT: > 100 µM

IN: Using known records, supply TGI for CCCNCCCCC(NC(C)=O)C(=O)NCc1ccccc1 (stereo unspecified)
OUT: > 100 µM

IN: Using known records, supply TGI for `O=C(/C=C/c1ccccc1O)c1ccccc1Cl`
OUT: > 100 µM

IN: Using known records, supply TGI for `CCOC(=O)C(=CNc1ccc(F)c(F)c1)C(=O)OCC`
OUT: > 100 µM

IN: Using known records, supply TGI for `Cc1cc(O)c(/C=N/C(=S)Nc2ccc(S(N)(=O)=O)cc2)c(=O)o1`
OUT: > 100 µM

For every item in the list below, what is its measured TGI?
1. CO/C(=N\N=C\c1ccc(Cl)c(Cl)c1)c1ccncc1
2. CC1=CCC(C(C)(C)NC(=O)c2ccccc2)C/C1=N/O (stereo unspecified)
3. O=c1[nH]cnc2n[nH]nc12
4. CCCCCCCCC(O)c1ccc(/C=C\C(O)CCCC(=O)O)s1 (stereo unspecified)
5. CCCCCCCCCCCCCCCc1nc(=S)[nH][nH]1

OUT:
1: > 10 µM; 2: > 100 µM; 3: > 69.7 µM; 4: > 100 µM; 5: > 100 µM

* * *

Test system: MDA-N
Assay: NCI tumour cell line growth inhibition, 48 h
Property measured: TGI

IN: Using known records, supply TGI for CN1CCC(C(O)(c2ccccc2)c2ccc(Br)cc2)CC1 (stereo not given)
OUT: 28.2 µM

IN: Using known records, supply TGI for `Cc1[nH]c(-c2ccccc2)c2nc(N(C)C)oc(=O)c12`
OUT: > 100 µM

IN: Using known records, supply TGI for `O=C1Oc2ccccc2C(=O)/C1=C/N1C(=O)CNC1=S`
OUT: > 100 µM

IN: Using known records, supply TGI for `C1CSCC2(COC2)CSCCSCC2(COC2)CS1`
OUT: > 100 µM

IN: Using known records, supply TGI for COC(=O)c1ccc2c(c1)CC1(C2)Cc2ccccc2C1=O (stereo not given)
OUT: 59.8 µM

IN: Using known records, supply TGI for `CCOc1ccc(NC(=O)C(=O)Nn2c(N)nnc2N)cc1`
OUT: > 100 µM

IN: Using known records, supply TGI for `Clc1ccc(CN2CCCN(Cc3ccc(Cl)cc3)C2c2cc3ccccc3c3ccccc23)cc1`
OUT: > 100 µM

IN: Using known records, supply TGI for `CC1=NN(c2nc(N)nc(/C(C#N)=C\c3ccc(-c4ccc([N+](=O)[O-])cc4)o3)n2)C(C)(C)C1`
OUT: > 100 µM

IN: Using known records, supply TGI for `O=C(NCCNCCNC(=O)c1cc(-c2ccccc2)nc2ccccc12)c1cc(-c2ccccc2)nc2ccccc12`
OUT: 3.42 µM

Here is another compound to look at.
IN: Using known records, supply TGI for `Cc1ccc(-c2cn3c(nc4ccccc43)c(/C=C/c3ccco3)n2)cc1`
OUT: > 100 µM

* * *

Test system: COLO 205 colon
Test: NCI tumour cell line growth inhibition, 48 h; in the data active means GI50 below about 0.43 µM; inactive means the rest
Field 'call' accepts active, inactive

Worked cases, answers included:
IN: // return assay outcome for `O=C1Nc2ccc3c(c2/C1=C\c1cc2c(cc1Br)OCO2)OCO3`
OUT: active

IN: // return assay outcome for `COc1ccc(-c2csc(Nc3cccc(-c4csc(C)n4)c3)n2)cc1`
OUT: inactive

IN: // return assay outcome for `N#Cc1cc(S(=O)(=O)Nc2nc3cc(Cl)ccc3o2)c(SCc2ccccc2)cc1Cl`
OUT: inactive

IN: // return assay outcome for COc1ccc(C(O)c2cc3c(N)c(C(=O)Nc4cccc(Br)c4C)sc3nc2C)cc1 (stereo not drawn)
OUT: inactive

IN: // return assay outcome for `CC1(C)N=C(N)N=C(N)N1c1cccc(CCc2ccccc2)c1`
OUT: inactive

IN: // return assay outcome for `CCn1c(-c2nonc2N)nc2cnc(Oc3cccc(NC(=O)c4ccc(N(C)C)cc4)c3)cc21`
OUT: inactive

IN: // return assay outcome for CCOC1Oc2ccc(C)cc2C(=O)/C1=C\Nc1ccc(S(N)(=O)=O)cc1 (stereo not drawn)
OUT: inactive

IN: // return assay outcome for `COc1ccc(C2=Nn3c(nnc3-n3nc(C)cc3C)SC2)cc1`
OUT: active

IN: // return assay outcome for `COc1ccc2c(c1)C(=O)c1c-2c(OCCN(C)C)nc2cc(OC)c(OC)cc12`
OUT: inactive

IN: // return assay outcome for `N#[N+]c1ccc(Nc2ccccc2)cc1`
OUT: inactive

Continuing:
IN: // return assay outcome for `CC[C@H]1OC(=O)[C@H](C)[C@@H](O[C@H]2C[C@@](C)(OC)[C@@H](O)[C@H](C)O2)[C@H](C)[C@@H](O[C@@H]2O[C@H](C)C[C@H](N(C)C)[C@H]2O)[C@](C)(OC)C/C(C)=C2/O[C@@]1(C)C=C2C`
OUT: inactive

IN: // return assay outcome for `CCOC(=O)c1c(NC(=O)c2ccc(Cl)cc2)sc2c(CN(C)C)c(O)ccc12`
OUT: inactive

IN: // return assay outcome for `CCOc1ccc2cc(-c3nn(CC4CCNCC4)c4ncnc(N)c34)ccc2c1`
OUT: inactive
